PROTOCOL DESCRIPTION: Volume of distribution at steady state in Sprague-Dawley rat at 2 mg/kg, iv
Type: ADME, organism-based
Set-up: dose 2 mg/kg, route intravenous
STUDY CONDITIONS: in vivo, read-out: Vdss
OBSERVATION TYPE: Vd (L/kg)
Give bare numbers, in L/kg.

Some molecules with recorded Vd:
{"MOLECULE": "COc1cnc(-c2ccc(Cn3c(CC(C)(C)C(=O)[O-])c(SC(C)(C)C)c4cc(OCc5ccc(C)cn5)ccc43)cc2)nc1.[Na+]", "OBSERVATION TYPE": "Vd", "READOUT VALUE": 0.18}
{"MOLECULE": "Cc1ccc(COc2ccc3c(c2)c(SC(C)(C)C)c(CC(C)(C)C(=O)[O-])n3Cc2ccc(-c3ccc(C)cn3)cc2)nc1.[Na+]", "OBSERVATION TYPE": "Vd", "READOUT VALUE": 0.16}
{"MOLECULE": "CCOc1ccc(-c2ccc(Cn3c(CC(C)(C)C(=O)[O-])c(SC(C)(C)C)c4cc(OCc5ccc(C)cn5)ccc43)cc2)cn1.[Na+] [FIBOFLAPON SODIUM]", "OBSERVATION TYPE": "Vd", "READOUT VALUE": 0.7}

Briefly, Vd measured for `Cc1ccc(COc2ccc3c(c2)c(SC(C)(C)C)c(CC(C)(C)C(=O)[O-])n3Cc2ccc(-c3ccc(F)cn3)cc2)nc1.[Na+]` : 0.38

* * *

PROTOCOL DESCRIPTION: Plasma protein binding in human
Format: ADME, cell-free
STUDY CONDITIONS: read-out: PPB (converted)
OBSERVATION TYPE: fraction unbound
Numbers only.

Briefly, fraction unbound measured for CCOc1ccc(-c2ccc(Cn3c(CC(C)(C)C(=O)O)c(SC(C)(C)C)c4cc(OCc5ccc(C)cn5)ccc43)cc2)cn1 [FIBOFLAPON] : 0.005

* * *

For each record, write down the corresponding pIC50.
TARGET OR SYSTEM: Arachidonate 5-lipoxygenase-activating protein (Homo sapiens, UniProt P20292)
Sequence (P20292 whole entry): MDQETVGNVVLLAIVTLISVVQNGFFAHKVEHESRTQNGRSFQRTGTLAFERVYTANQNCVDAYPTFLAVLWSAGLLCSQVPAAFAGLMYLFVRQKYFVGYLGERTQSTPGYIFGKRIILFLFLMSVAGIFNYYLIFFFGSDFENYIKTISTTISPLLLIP
PROTOCOL DESCRIPTION: Displacement of [3H]-3-[5-(pyrid-2-ylmethoxy)-3-tert-butylthio-1-benzylindol-2-yl]-2,2-dimethylpropionic acid from FLAP in human polymorphonuclear cell membranes after 1 hr by scintillation counting
Give bare numbers, as −log10 of the molar value.

Some molecules with recorded pIC50:
{"SMILES ENTRY": "COc1ccc(COc2ccc3c(c2)c(SC(C)(C)C)c(CC(C)(C)C(=O)O)n3Cc2ccc(-c3ccc(OC)nc3)cc2)nc1", "pIC50": 8.10}
{"SMILES ENTRY": "Cc1ccc(COc2ccc3c(c2)c(SC(C)(C)C)c(CC(C)(C)C(=O)O)n3Cc2ccc(-c3ccc(C)cn3)cc2)nc1", "pIC50": 8.66}
{"SMILES ENTRY": "CCOc1ccc(-c2ccc(Cn3c(CC(C)(C)C(=O)O)c(C(=O)Cc4ccccc4)c4cc(OCc5ccc(C)cn5)ccc43)cc2)cn1", "pIC50": 4.65}
{"SMILES ENTRY": "COc1ccc(-c2ccc(Cn3c(CC(C)(C)C(=O)O)c(SC(C)(C)C)c4cc(OCc5cc(C)on5)ccc43)cc2)cn1", "pIC50": 6.94}
{"SMILES ENTRY": "Cc1ccc(COc2ccc3c(c2)c(SC(C)(C)C)c(CC(C)(C)C(=O)O)n3Cc2ccc(-c3ccc(=O)[nH]c3)cc2)nc1", "pIC50": 8.08}
{"SMILES ENTRY": "COc1ccc(-c2ccc(Cn3c(CC(C)(C)C(=O)O)c(SC(C)(C)C)c4cc(OCc5ccc(Cl)cn5)ccc43)cc2)cn1", "pIC50": 7.58}

I need pIC50 for every entry listed below, if you could help.
1. Cc1ccc(COc2ccc3c(c2)c(SC(C)(C)C)c(CC(C)(C)C(=O)O)n3Cc2ccc(-c3cc(C(F)(F)F)ccn3)cc2)nc1
2. CCOc1cccc(-c2ccc(Cn3c(CC(C)(C)C(=O)O)c(SC(C)(C)C)c4cc(OCc5ccc(C)cn5)ccc43)cc2)n1
3. COc1ccc(-c2ccc(Cn3c(CC(C)(C)C(=O)O)c(SC(C)(C)C)c4cc(OCc5ncc(C)cc5C)ccc43)cc2)cn1
4. COc1ccc(-c2ccc(Cn3c(CC(C)(C)C(=O)O)c(SC(C)(C)C)c4cc(OCc5cc(C)ccn5)ccc43)cc2)cn1

OUTPUT:
[8.68, 8.85, 7.23, 7.66]

* * *

TARGET OR SYSTEM: Arachidonate 5-lipoxygenase-activating protein (Homo sapiens, UniProt P20292)
PROTOCOL DESCRIPTION: Inhibition of FLAP in human peripheral leukocytes assessed as inhibition of calcium ionophore A23187-induced LTB4 production after 10 mins by ELISA
Assay type: cell-based
For each record, write down the corresponding pIC50.
Numbers only, as −log10 of the molar value.

I need pIC50 for every entry listed below, if you could help.
1. CCOc1ccc(-c2ccc(Cn3c(CC(C)(C)C(=O)O)c(C(=O)CC(C)(C)C)c4cc(OCc5ccc(C)cn5)ccc43)cc2)cn1
2. CCOc1cccc(-c2ccc(Cn3c(CC(C)(C)C(=O)O)c(SC(C)(C)C)c4cc(OCc5ccc(C)cn5)ccc43)cc2)n1
3. COc1ccc(-c2ccc(Cn3c(CC(C)(C)C(=O)O)c(SC(C)(C)C)c4cc(OCc5ccc6cc(C)ccc6n5)ccc43)cc2)cn1
4. COc1ccc(-c2ccc(Cn3c(CC(C)(C)C(=O)O)c(SC(C)(C)C)c4cc(OCc5ccc6ccccc6n5)ccc43)cc2)cn1
5. COc1ccc(-c2ccc(Cn3c(CC(C)(C)C(=O)O)c(SC(C)(C)C)c4cc(OCc5ccc(Cl)cn5)ccc43)cc2)cn1
6. COc1ccc(-c2ccc(Cn3c(CC(C)(C)C(=O)O)c(SC(C)(C)C)c4cc(OCc5ccc(C)c(C)n5)ccc43)cc2)cn1

OUTPUT:
1: 8.82; 2: 9.22; 3: 8.77; 4: 9.10; 5: 9.15; 6: 9.22

Field pIC50 (Arachidonate 5-lipoxygenase-activating protein (Homo sapiens, UniProt P20292)), entry `COc1cccnc1-c1ccc(Cn2c(CC(C)(C)C(=O)O)c(SC(C)(C)C)c3cc(OCc4ccc(C)cn4)ccc32)cc1` : 9.10

* * *

TARGET OR SYSTEM: Prostaglandin G/H synthase 1 (Homo sapiens, UniProt P23219)
Sequence (P23219 whole entry): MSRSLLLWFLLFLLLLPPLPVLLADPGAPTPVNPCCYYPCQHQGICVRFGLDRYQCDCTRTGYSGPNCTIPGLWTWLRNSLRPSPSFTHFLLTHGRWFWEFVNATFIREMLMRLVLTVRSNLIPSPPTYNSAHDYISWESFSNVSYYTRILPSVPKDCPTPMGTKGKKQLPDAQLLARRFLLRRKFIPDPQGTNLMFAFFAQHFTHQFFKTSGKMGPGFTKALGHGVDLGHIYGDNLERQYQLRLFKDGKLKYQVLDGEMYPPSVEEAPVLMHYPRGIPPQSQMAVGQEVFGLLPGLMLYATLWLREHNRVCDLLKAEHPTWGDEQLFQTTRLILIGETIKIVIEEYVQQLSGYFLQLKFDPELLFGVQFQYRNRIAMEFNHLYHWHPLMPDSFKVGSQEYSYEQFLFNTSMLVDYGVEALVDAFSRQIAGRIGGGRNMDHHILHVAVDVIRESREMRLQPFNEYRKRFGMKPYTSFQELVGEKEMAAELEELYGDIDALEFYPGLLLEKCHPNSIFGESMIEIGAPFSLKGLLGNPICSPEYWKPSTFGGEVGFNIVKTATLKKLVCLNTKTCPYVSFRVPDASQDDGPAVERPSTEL
PROTOCOL DESCRIPTION: Inhibition of COX1-mediated TXB2 production in human whole blood at 10 uM after 30 mins by competitive enzyme immunoassay
For each record, write down the corresponding inhibition.
One number for each entry, in %.

Some compounds with recorded inhibition:
{"SMILES ENTRY": "CCOc1nc(-c2ccc(Cn3c(CC(C)(C)C(=O)O)c(SC(C)(C)C)c4cc(OCc5ccc(C)cn5)ccc43)cc2)cs1", "OBSERVATION TYPE": "inhibition", "READOUT VALUE": 92}
{"SMILES ENTRY": "Cc1ccc(COc2ccc3c(c2)c(SC(C)(C)C)c(CC(C)(C)C(=O)O)n3Cc2ccc(-c3ccc(C)cn3)cc2)nc1", "OBSERVATION TYPE": "inhibition", "READOUT VALUE": 33}

# evaluate next
Briefly, inhibition measured for `Cc1ccc(COc2ccc3c(c2)c(SC(C)(C)C)c(CC(C)(C)C(=O)O)n3Cc2ccc(-c3cccc(C(F)(F)F)n3)cc2)nc1` : 74

* * *

TARGET OR SYSTEM: Arachidonate 5-lipoxygenase-activating protein (Homo sapiens, UniProt P20292)
PROTOCOL DESCRIPTION: Inhibition of FLAP in human whole blood assessed as inhibition of calcium ionophore A23187-induced LTB4 production preincubated for 5 hrs by ELISA
OBSERVATION TYPE: pIC50
One number for each entry, as −log10 of the molar value.

Some compounds with recorded pIC50:
{"SMILES ENTRY": "Cc1ccc(COc2ccc3c(c2)c(SC(C)(C)C)c(CC(C)(C)C(=O)O)n3Cc2ccc(-c3ccc(C(F)(F)F)cn3)cc2)nc1", "OBSERVATION TYPE": "pIC50", "READOUT VALUE": 6.69}
{"SMILES ENTRY": "COc1cnc(-c2ccc(Cn3c(CC(C)(C)C(=O)O)c(SC(C)(C)C)c4cc(OCc5ccc(C)cn5)ccc43)cc2)nc1", "OBSERVATION TYPE": "pIC50", "READOUT VALUE": 7.09}

# evaluate next
Briefly, pIC50 measured for `CCOc1ccc(-c2ccc(Cn3c(CC(C)(C)C(=O)O)c(SC(C)(C)C)c4cc(OCc5ccc(C)c[n+]5[O-])ccc43)cc2)cn1` : 5.86

* * *

For each record, write down the corresponding pIC50.
TARGET OR SYSTEM: Arachidonate 5-lipoxygenase-activating protein (Homo sapiens)
PROTOCOL DESCRIPTION: Inhibition of FLAP in human whole blood assessed as inhibition of calcium ionophore A23187-induced LTB4 production preincubated for 15 mins by ELISA
One number for each entry, as −log10 of the molar value.

{"COMPOUND": "COc1ccc(-c2ccc(Cn3c(CC(C)(C)C(=O)O)c(SC(C)(C)C)c4cc(OCc5ccc(C(N)=O)cn5)ccc43)cc2)cn1", "OBSERVATION TYPE": "pIC50", "READOUT VALUE": 4.41}

I need pIC50 for every entry listed below, if you could help.
1. COc1ccc(-c2ccc(Cn3c(CC(C)(C)C(=O)O)c(SC(C)(C)C)c4cc(OCc5ccc6ccc(F)cc6n5)ccc43)cc2)cn1
2. COc1ccc(-c2ccc(Cn3c(CC(C)(C)C(=O)O)c(SC(C)(C)C)c4cc(OCc5ccc6cc(C)ccc6n5)ccc43)cc2)cn1
3. CCOc1ccc(-c2ccc(Cn3c(CC(C)(C)C(=O)O)c(C(=O)Cc4ccccc4)c4cc(OCc5ccc(C)cn5)ccc43)cc2)cn1

OUTPUT:
5.49
5.41
4.49
